Test system: A498
Experiment: NCI tumour cell line growth inhibition, 48 h
The source made the active and inactive calls. Cut-off read from the data, not from the text of the source: active = GI50 up to about 1.1 µM and inactive = higher.
Allowed answers: yes for active, no for inactive

Answered examples (5):
Prompt: // param item: CC(C)NC(=O)OCc1c(COC(=O)NC(C)C)c(-c2ccc[n+](COC(=O)CC(C)(C)C)c2)n2c1CCC2 ; yields the recorded call
Completion: no

Prompt: // param item: CCc1cn(C2CC(CO)C(CO)S2)c(=O)[nH]c1=O (configuration not stated) ; yields the recorded call
Completion: no

Prompt: // param item: COc1cc([C@@H]2c3cc4c(cc3[C@@H](Nc3ccc([N+](=O)[O-])cc3C(=O)c3ccccc3)[C@H]3COC(=O)[C@H]23)OCO4)cc(OC)c1OC ; yields the recorded call
Completion: yes

Prompt: // param item: O=C(/C=C/c1ccccc1)CCN1CCN(CCC(=O)/C=C/c2ccccc2)CC1 ; yields the recorded call
Completion: no

Prompt: // param item: O=C(Oc1ccc(Cl)cc1[N+](=O)[O-])c1ccccc1 ; yields the recorded call
Completion: no

New cases:
Prompt: // param item: CN(C)c1n/c(=N/Cc2ccccc2)ss1 ; yields the recorded call
Completion: no

Prompt: // param item: O=C(CC1(O)C(=O)Nc2c(Cl)cc(Cl)cc21)c1ccc2ccccc2c1 (configuration not stated) ; yields the recorded call
Completion: no

Prompt: // param item: C=C(COC(C)=O)CC(/C=C(\C)CC/C=C(\C)CO)OC(C)=O (configuration not stated) ; yields the recorded call
Completion: no

Prompt: // param item: O=C1CCC(CCc2nc3ccccc3[nH]2)(c2ccccc2)C(=O)N1 (configuration not stated) ; yields the recorded call
Completion: no

Prompt: // param item: CSc1ccc(NC(=S)NN(C)C)cc1 ; yields the recorded call
Completion: no

Prompt: // param item: Cc1ccc2c(c1)CC1(Cc3ccccc3C1=O)C2=O (configuration not stated) ; yields the recorded call
Completion: no

Prompt: // param item: OC(C/C=N/Nc1ccccc1)(C(F)(F)Cl)C(F)(F)Cl ; yields the recorded call
Completion: no

Prompt: // param item: CCOC(=O)CC(=O)Nc1cccc2nc[nH]c12 ; yields the recorded call
Completion: no

Prompt: // param item: COc1ccc(C(C)Nc2cc(OC)c(OC)c(OC)c2)cc1 (configuration not stated) ; yields the recorded call
Completion: no

Prompt: // param item: C#CCN1CCN(C(=S)N/N=C(\C)c2ccccn2)CC1 ; yields the recorded call
Completion: no

Prompt: // param item: CC(=O)c1c(=O)n(-c2ccc(C)cc2)c(O)c2c(N)n[nH]c12 ; yields the recorded call
Completion: no

Prompt: // param item: COc1cccc(N2C(=O)CS(=O)(=O)C2c2cccc(Oc3ccccc3)c2)c1 (configuration not stated) ; yields the recorded call
Completion: no

Prompt: // param item: COC(=O)C1Cc2ccc(O)c(O)c2CN1 (configuration not stated) ; yields the recorded call
Completion: no

Prompt: // param item: Cc1ccc(CC(Cc2ccc(C)cc2C(=O)O)C(=O)O)cc1 (configuration not stated) ; yields the recorded call
Completion: no

Prompt: // param item: CC1(C)C(CC(=O)O)CCCC1CC(=O)O (configuration not stated) ; yields the recorded call
Completion: no

Prompt: // param item: CS[C@]12C(=O)C[C@@]3(C)[C@@H](CC[C@]3(O)C(=O)CO)[C@@H]1CCC1=CC(=O)CC[C@@]12C ; yields the recorded call
Completion: no

Prompt: // param item: NS(=O)(=O)c1ccc(/N=N/c2ccc(O)cc2)cc1 ; yields the recorded call
Completion: no

---

System: T47D
Experiment: NCI tumour cell line growth inhibition, 48 h
The source made the active and inactive calls. No stated cut-off is given here; in the data, active = GI50 up to about 1.1 µM and inactive = higher.
Allowed answers: active, inactive

Prompt: // param item: COc1cccc(N2C(=O)CS(=O)(=O)C2c2cccc(Oc3ccccc3)c2)c1 (stereo not given) ; yields the recorded call
Completion: inactive

Prompt: // param item: CO[C@H]1/C=C/O[C@@]2(C)Oc3c(C)c(O)c4c(O)c(c(/C=N/N5CCN(C)CC5)c(O)c4c3C2=O)NC(=O)/C(C)=C\C=C\[C@H](C)[C@H](O)[C@@H](C)[C@@H](O)[C@@H](C)[C@H](OC(C)=O)[C@@H]1C ; yields the recorded call
Completion: inactive

Prompt: // param item: COc1cc(C2SCC(=O)N2NC(=O)c2ccc(NC(C)=O)cc2)cc(OC)c1OC (stereo not given) ; yields the recorded call
Completion: inactive

Prompt: // param item: CC1=C(/C=C/C(C)=C/C=C/C(C)=C/C(=O)OCC2OC(n3cc(F)c(=O)[nH]c3=O)CC2OC(=O)/C=C(C)/C=C/C=C(C)/C=C/C2=C(C)CCCC2(C)C)C(C)(C)CCC1 (stereo not given) ; yields the recorded call
Completion: inactive

New cases:
Prompt: // param item: c1ccc(C(CCN2CC3CCC(CC3)C2)c2ccccc2)cc1 ; yields the recorded call
Completion: inactive

Prompt: // param item: Cc1cc2nc(O)c(C(C)C(=O)c3ccc(Cl)cc3)nc2cc1C (stereo not given) ; yields the recorded call
Completion: inactive

Prompt: // param item: CN(NC(=O)/C(=C/C=C/c1ccccc1)NC(=O)c1ccccc1)C1=C(Cl)C(=O)[N+](c2ccccc2)=CC1 ; yields the recorded call
Completion: inactive

Prompt: // param item: CC(C)NC(=O)OCc1c(COC(=O)NC(C)C)c(-c2ccc[n+](COC(=O)CC(C)(C)C)c2)n2c1CCC2 ; yields the recorded call
Completion: inactive

Prompt: // param item: CC1=CC(=O)C(C(O)(C(F)(F)F)C(F)(F)F)C(C)(C)C1 (stereo not given) ; yields the recorded call
Completion: inactive

Prompt: // param item: C[C@]12CCC3C4=C(CCC3C1CCC2=O)C(=O)[C@H]1O[C@H]1C4=O (stereo not given in full) ; yields the recorded call
Completion: active

---

For each record, write down the corresponding GI50.
Tested on: HOP-62
Assay: NCI tumour cell line growth inhibition, 48 h
Calls of active or inactive are those of the source. Rule as the data show it: active = GI50 up to about 1.1 µM and inactive = higher.

Below: 3 molecules and their reported GI50.
Recorded result, COC(=O)[C@]12CCC(C)(C)C[C@H]1C1=CC[C@@H]3[C@@]4(C)CC[C@H](OC5OC(CO)C(O)C(O)C5OC5OC(CO)C(O)C(O)C5O)C(C)(C)[C@@H]4CC[C@@]3(C)[C@]1(C)CC2 (some centres undefined) , GI50: 12.6 µM (inactive)

Recorded result, COc1cccc(N2C(=O)c3c(c4[nH]c5ccccc5c4c4ccc(C(C)(C)C)cc34)C2=O)c1 , GI50: > 100 µM (inactive)

Recorded result, N=C1OC(c2c[nH]c3ccc(OCc4ccccc4)cc23)C(O)=C1O (centres undefined) , GI50: > 100 µM (inactive)

Could you now look at the following molecule, please?
Recorded result, O=C1NCCCNCCCNCCCNC(=O)c2cccc1n2 , GI50: > 100 µM (inactive)

---

Tested on: K562
Assay: NCI tumour cell line growth inhibition, 48 h
Activity calls are given as the source filed them. Cut-off read from the data, not from the text of the source: active = GI50 up to about 1.1 µM and inactive = higher.
Measured Attribute: GI50

Below: 4 molecules and their reported GI50.
Recorded result, CCO/C=N\C1=C(C#N)SC2=N/C(=C\c3ccc(OC)cc3)C(=O)N21 , GI50: 25.9 µM (inactive)

Recorded result, O=C1CC(c2ccc(O)cc2)C2(O1)C(=O)OC(C(O)CO)C2O (stereo not given) , GI50: > 100 µM (inactive)

Recorded result, O=[N+]([O-])c1ccc(Cc2nc3cc4ccccc4cc3[nH]2)cc1C(F)(F)F , GI50: 6.56 µM (inactive)

Recorded result, C=CCNC(=S)N/N=C1\C(=O)N(CN2CCOCC2)c2ccc([N+](=O)[O-])cc21 , GI50: 18.9 µM (inactive)

New cases:
Recorded result, O=C(Cn1ccnc1[N+](=O)[O-])c1ccccc1 , GI50: > 100 µM (inactive)

---

Test system: BT-549
Assay: NCI tumour cell line growth inhibition, 48 h
The source made the active and inactive calls. Rule as the data show it: active = GI50 up to about 1.1 µM and inactive = higher.
For each record, write down the corresponding GI50.

Below: 4 molecules and their reported GI50.
Recorded result, O=c1cc(O)c2c(O)cc(O)cc2o1 , GI50: > 100 µM (inactive)

Recorded result, CCC1C(c2cc(OC)c(OC)c(OC)c2)c2cc3c(cc2OC1N1CCCC1)OCO3 (stereo not given) , GI50: 4.06 µM (inactive)

Recorded result, O=C(O)c1ccccc1Sc1ccccc1[N+](=O)[O-] , GI50: > 100 µM (inactive)

Recorded result, CCCCC(C)(C/C=C/[C@@H]1[C@@H](C(O)CCCCCC(=O)OC)C(=O)C[C@H]1O[Si](C)(C)C(C)(C)C)O[Si](C)(C)C (stereo not given in full) , GI50: > 100 µM (inactive)

New cases:
Recorded result, CCC1NC(=O)C(NC(=O)c2ncccc2O)C(C)OC(=O)C(c2ccccc2)NC(=O)C2CC(=O)CCN2C(=O)C(Cc2ccccc2)N(C)C(=O)C2CCCN2C1=O (stereo not given) , GI50: > 100 µM (inactive)
